- protocol: Cell Viability - LYMP2-016 (AID 984);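 note: cells exposed to compound for 24 hours at 37 °C; nearly all actives have a fitted effect of over 55% in size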
- condition_notes: LYMP2-016 lymphoblastoid cell viability, qHTS; series mostly up to 92.2 µM
- Text: NIH Chemical Genomics Center [NCGC] NIH Molecular Libraries Screening Centers Network [MLSCN] National Institutes of Environmental Health Sciences [NIEHS] National Toxicology Program [NTP] We have developed a 1536-well cell-based assay for quantitative high throughput screening (qHTS) against a number of cell lines to determine in vitro cytotoxicity of small molecules. […] 8. Detection; Luminescence; Viewlux plate reader […]
Results filed as inconclusive are left out. Calls of active or inactive are those of the source. Calls come from the whole dose curve; as a rule, active = well fitted cell-killing curve with a large enough effect; inconclusive = small, poorly fitted or top-dose-only effect; inactive = flat fitted curve, though single readings scatter.
Outcomes: active, inactive

molecule | class_name
ClC1=C(Cl)C2(Cl)C3C(Cl)C(Cl)CC3C1(Cl)C2(Cl)Cl (stereo not drawn) | inactive
OC(c1ccc(Cl)cc1)(c1ccc(Cl)cc1)C(Cl)(Cl)Cl | inactive
Nc1ccccc1C(=O)OCCc1ccccc1 | inactive
[CH3][Hg][Cl] | active
c1ccc2cc3c(cc2c1)-c1cccc2cccc-3c12 | inactive
O=C(CCl)c1ccccc1 | active
Oc1c(Br)c(Br)c(Br)c(Br)c1Br | inactive
C[C@@H]1CC[C@@]2(OC1)O[C@H]1[C@@H](O)[C@H]3[C@@H]4CC[C@H]5C[C@@H](O[C@@H]6O[C@H](CO)[C@H](O[C@@H]7O[C@H](CO)[C@@H](O)[C@H](O[C@@H]8OC[C@@H](O)[C@H](O)[C@H]8O)[C@H]7O[C@@H]7O[C@H](CO)[C@@H](O)[C@H](O[C@@H]8O[C@H](CO)[C@@H](O)[C@H](O)[C@H]8O)[C@H]7O)[C@H](O)[C@H]6O)[C@H](O)C[C@]5(C)[C@H]4CC[C@]3(C)[C@H]1[C@@H]2C | active
